- Tested on: Enterococcus spp.
- METHOD: minimum inhibitory concentration (MIC)
- CONDITIONS: isolate (source animal id): 320
For each record, write down the corresponding minimum inhibitory concentration.
Field format: number, assumed µg/mL, no unit text.

# get_value(readout='minimum inhibitory concentration', item= CC[C@H]1OC(=O)C[C@@H](O)[C@H](C)[C@@H](O[C@@H]2O[C@H](C)[C@@H](O)[C@H](N(C)C)[C@H]2O)[C@@H](CCN2CCCCC2)C[C@@H](C)C(=O)/C=C/C(C)=C/[C@@H]1CN1CCCCC1 [Tildipirosin] )
8

Returns the measured minimum inhibitory concentration for the input compound. Input: CNC(C)C1CCC(N)C(OC2C(N)CC(N)C(OC3OCC(C)(O)C(NC)C3O)C2O)O1 (stereo not given) [Gentamicin]
8

Looking for the measured minimum inhibitory concentration of CN1C[C@@H]2C[C@H]1CN2c1cc2c(cc1F)c(=O)c(C(=O)O)cn2C1CC1 [Danofloxacin] , can you help?
0.5
